Overview of recorded CC50 for various compounds
- Assay summary: MRC-5 cytotoxicity
- Assay type: cell-based
- Test context: human, MRC-5 cells; S1 Data

{"Compound": "Cn1nccc1C(=O)Nc1nc2cncnc2n1CC(F)(F)F [Compound 55, O=C(c1ccnn1C)Nc2nc(cncn3)c3n2CC(F)(F)F]", "Meas value": "24.8 µM"}
{"Compound": "Cn1nccc1C(=O)Nc1nc2ccc(C#N)cc2n1CC(F)(F)F [Compound 30]", "Meas value": "12.8 µM"}
{"Compound": "CCCn1c(NC(=O)Cc2ccc(Cl)cc2)nc2cc(F)ccc21 [Compound 4, CCCn1c(ccc(F)c2)c2nc1NC(=O)Cc3ccc(Cl)cc3]", "Meas value": "> 64 µM"}
{"Compound": "Cc1ccc(C(=O)Nc2nc3ccc(C#N)cc3n2CC(F)(F)F)cn1 [Compound 42]", "Meas value": "> 64 µM"}
{"Compound": "O=C(Cc1ccc(F)cc1)Nc1nc2cc(F)ccc2n1C1CCOCC1 [Compound 28]", "Meas value": "> 64 µM"}

Give the measured CC50 of CC(C)(C)Cn1c(NC(=O)c2ccn(CCO)n2)nc2ccc(C#N)cc21 [Compound 38] .
> 64 µM

Give the measured CC50 of Cn1c(NC(=O)Cc2ccc(Cl)cc2)nc2ccccc21 [Compound 17, O=C(Nc1n(C)c(cccc2)c2n1)Cc3ccc(Cl)cc3] .
> 64 µM

Give the measured CC50 of N#Cc1ccc2nc(NC(=O)c3cnc(C(F)(F)F)nc3)n(CC(F)(F)F)c2c1 [Compound 46] .
1.78 µM

Give the measured CC50 of CCN(CC)CCCn1c(NC(=O)Cc2ccc(F)cc2)nc2ccc(C#N)cc21 [Compound 26] .
> 64 µM

* * *

Overview of recorded Papp at 5 h, 10 μM for various compounds
- Assay summary: Parallel artificial membrane permeability assay (PAMPA)
- Format: in vitro ADME
- Test context: PAMPA, S1 Data; read-out: PAMPA Pe
Report as: number unit

Here is how some compounds turned out for Papp at 5 h, 10 μM.
{"Compound": "CC(C)(C)Cn1c(NC(=O)c2ccn(CCO)n2)nc2ccc(C#N)cc21 [Compound 38]", "Meas value": "7.54 ×10⁻⁶ cm/s"}
{"Compound": "Cn1nccc1C(=O)Nc1nc2cccnc2n1CC(F)(F)F [Compound 53, O=C(c1ccnn1C)Nc2nc(cccn3)c3n2CC(F)(F)F]", "Meas value": "24.3 ×10⁻⁶ cm/s"}

Give the measured Papp at 5 h, 10 μM of O=C(Cc1ccc(F)cc1)Nc1nc2cc(F)ccc2n1CCCN1CCOCC1 [Compound 27] .
4.74 ×10⁻⁶ cm/s

Give the measured Papp at 5 h, 10 μM of O=C(Cc1ccc(Cl)cc1)Nc1nc2ccc(F)cc2n1CC(F)(F)F [Compound 23] .
7.07 ×10⁻⁶ cm/s

Give the measured Papp at 5 h, 10 μM of O=C(Cc1ccc(F)cc1)Nc1nc2cc(F)ccc2n1C1CCOCC1 [Compound 28] .
19.6 ×10⁻⁶ cm/s

* * *

- Assay summary: Experimental distribution coefficient (eLogD)
- Format: physicochemical
- Test context: experimental, pH 7.4
Overview of recorded eLogD for various compounds
Note: the reply should be a number with no unit written.

{"Compound": "COc1ccc(C(=O)Nc2nc3ccc(C#N)cc3n2CC(F)(F)F)cn1 [Compound 43]", "Meas value": 4.9}

Give the measured eLogD of N#Cc1ccc2nc(NC(=O)c3ccc(C(F)(F)F)nc3)n(CC(F)(F)F)c2c1 [Compound 45] .
3.1

Give the measured eLogD of CC(C)(C)Cn1c(NC(=O)c2ccn[nH]2)nc2ccc(C#N)cc21 [Compound 34] .
3.6

Give the measured eLogD of Cn1nncc1C(=O)Nc1nc2ccc(C#N)cc2n1CC(F)(F)F [Compound 33] .
4.0

Give the measured eLogD of CCCn1c(NC(=O)Cc2ccc(Cl)cc2)nc2cc(C(F)(F)F)ccc21 [Compound 7] .
4.7

Give the measured eLogD of CCCn1c(NC(=O)Cc2ccc(F)cc2)nc2ccccc21 [Compound 2, CCCn1c(nc2c1cccc2)NC(Cc3ccc(cc3)F)=O] .
4.0

Give the measured eLogD of Cn1ccc(C(=O)Nc2nc3ccc(C#N)cc3n2CC(F)(F)F)n1 [Compound 35] .
4.2

Give the measured eLogD of CCCn1c(NC(=O)Cc2ccc(F)cc2)nc2ccc(C#N)cc21 [Compound 8] .
3.6

* * *

- Tested on: MRC-5 cells
- Assay summary: MRC-5 cytotoxicity
- Type: cell-based
- Test context: S1 Data
Overview of recorded CC50 for various compounds

State its CC50 on MRC-5 cells: `N#Cc1ccc2nc(NC(=O)c3ccc(C(F)(F)F)nc3)n(CC(F)(F)F)c2c1`
> 64 µM

State its CC50 on MRC-5 cells: `N#Cc1ccc2nc(NC(=O)c3ccnc(C(F)(F)F)c3)n(CC(F)(F)F)c2c1`
> 64 µM

* * *

- Assay summary: Mouse liver microsomal stability
- Format: in vitro ADME
- Test context: mouse liver microsome intrinsic clearance
Assay endpoint: MLM CLint (µL/min/mg)
Could you give me the number in µL/min/mg? Just the number is fine.

Here is how some compounds turned out for MLM CLint.
{"Smiles notation": "CCCn1c(NC(=O)Cc2ccc(F)cc2)nc2cc(F)c(F)cc21", "MLM CLint [µL/min/mg]": 399}
{"Smiles notation": "N#Cc1ccc2nc(NC(=O)c3ccnc(C(F)(F)F)c3)n(CC(F)(F)F)c2c1", "MLM CLint [µL/min/mg]": 27}
{"Smiles notation": "Cn1nc(C(F)(F)F)cc1C(=O)Nc1nc2ccc(C#N)cc2n1CC(F)(F)F", "MLM CLint [µL/min/mg]": 28}
{"Smiles notation": "Cn1nccc1C(=O)Nc1nc2cccnc2n1CC(F)(F)F", "MLM CLint [µL/min/mg]": 119}
{"Smiles notation": "Cn1nccc1C(=O)Nc1nc2ccc(C#N)cc2n1CC(F)(F)F", "MLM CLint [µL/min/mg]": 20}

// next entry
Give the measured MLM CLint of `CCCn1c(NC(=O)Cc2ccc(Cl)cc2)nc2ccccc21` .
3094

* * *

Overview of recorded microsomal CLint at 0.5 μM for various molecules
- Assay summary: Mouse liver microsomal stability
- Assay type: in vitro ADME
- Test context: CD1, mouse, liver microsomes, pH 7.4, S1 Data; read-out: MLM CLint
Could you give me the number in µL/min/mg? Just the number is fine.

Here is how some molecules turned out for microsomal CLint at 0.5 μM.
{"Smiles notation": "CCCn1c(NC(=O)Cc2ccc(F)cc2)nc2ccccc21", "microsomal CLint at 0.5 μM (µL/min/mg)": 2760}
{"Smiles notation": "O=C(Cc1ccc(F)cc1)Nc1nc2cc(F)ccc2n1C1CCOCC1", "microsomal CLint at 0.5 μM (µL/min/mg)": 133}
{"Smiles notation": "CCCn1c(NC(=O)Cc2ccc(F)cc2)nc2ccc(C#N)cc21", "microsomal CLint at 0.5 μM (µL/min/mg)": 226}
{"Smiles notation": "CCN(CC)CCCn1c(NC(=O)c2ccnn2C)nc2ccc(C#N)cc21", "microsomal CLint at 0.5 μM (µL/min/mg)": 59}
{"Smiles notation": "Cn1nccc1C(=O)Nc1nc2cccnc2n1CC(F)(F)F", "microsomal CLint at 0.5 μM (µL/min/mg)": 118}

// next entry
Give the measured microsomal CLint at 0.5 μM of `CC(C)(C)n1c(NC(=O)Cc2ccc(F)cc2)nc2cc(F)ccc21` .
373

* * *

- Assay summary: Mouse liver microsomal stability
- Type: in vitro ADME
- Test context: S1 Data
Lab note: anything with MLM CLint below 200 µL/min/mg is marked Met; values at 200 µL/min/mg or higher are marked Not met.

// below: answered molecules
{"Molecule": "CC(C)(C)Cn1c(NC(=O)c2cccnc2)nc2ccc(C#N)cc21 [Compound 41]", "Class": "Met"}
{"Molecule": "COCCn1c(NC(=O)c2ccnn2C)nc2ccc(C#N)cc21 [Compound 50, O=C(c1ccnn1C)Nc2nc(ccc(C#N)c3)c3n2CCOC]", "Class": "Met"}
{"Molecule": "CN1CCC(n2c(NC(=O)c3ccnn3C)nc3ccc(C#N)cc32)CC1 [Compound 51]", "Class": "Met"}

Hello, I'm reviewing records and need to know if MLM CLint of Cn1nccc1C(=O)Nc1nc2ccc(C#N)cc2n1CCF [Compound 48, FCCn1c(cc(C#N)cc2)c2nc1NC(c3ccnn3C)=O] is below 200 µL/min/mg. Could you check?
Met

Hello, I'm reviewing records and need to know if MLM CLint of N#Cc1ccc2nc(NC(=O)c3ccc(C(F)(F)F)nc3)n(CC(F)(F)F)c2c1 [Compound 45] is below 200 µL/min/mg. Could you check?
Met

Hello, I'm reviewing records and need to know if MLM CLint of Cn1nccc1C(=O)Nc1nc2cccnc2n1CC(C)(C)C [Compound 54] is below 200 µL/min/mg. Could you check?
Not met
